# assay_text: Lipophilicity, log P of the compound in octanol-buffer at pH 7 by HPLC analysis
# Format: physicochemical
Provide the reported logD of each item.
Answers are plain numbers.

Cc1cc(OC(=O)c2ccc(OCCCO[N+](=O)[O-])cc2)n(-c2ccccc2)n1 : 4.74
Cc1cc(OC(=O)CCCCCO[N+](=O)[O-])n(-c2ccccc2)n1 : 3.79
Cc1cc(OC(=O)c2ccc(CC(CO[N+](=O)[O-])O[N+](=O)[O-])cc2)n(-c2ccccc2)n1 (stereo not drawn) : 4.88
Cc1cc(OC(=O)c2ccc(CCCO[N+](=O)[O-])cc2)n(-c2ccccc2)n1 : 4.76
Cc1cc(OC(=O)OCCCCCCO[N+](=O)[O-])n(-c2ccccc2)n1 : 4.39
Cc1cc(OC(=O)c2ccc(OCC(CO[N+](=O)[O-])O[N+](=O)[O-])cc2)n(-c2ccccc2)n1 (stereo not drawn) : 5.14

Give me logD for each of these molecules, listed below.
1. Cc1cc(OC(=O)OCCCCC(CO[N+](=O)[O-])O[N+](=O)[O-])n(-c2ccccc2)n1 (stereo not drawn)
2. Cc1cc(OC(=O)C(C)(C)CO[N+](=O)[O-])n(-c2ccccc2)n1
3. Cc1cc(OC(=O)C(C)(C)CCCCO[N+](=O)[O-])n(-c2ccccc2)n1
4. Cc1cc(OC(=O)OCCCO[N+](=O)[O-])n(-c2ccccc2)n1
5. Cc1cc(OC(=O)C(C)(C)CCC(CO[N+](=O)[O-])O[N+](=O)[O-])n(-c2ccccc2)n1 (stereo not drawn)
6. Cc1cc(OC(=O)CCCC(CO[N+](=O)[O-])O[N+](=O)[O-])n(-c2ccccc2)n1 (stereo not drawn)

4.63
3.55
4.3
3.35
4.04
3.95

logD for CC1=NN(c2ccccc2)C(=O)C1 [EDARAVONE] ?
1.44

###

# assay_text: Half life in Wistar rat liver homogenate at 200 uM by RP-HPLC analysis
# Format: ADME, tissue-based
quantity: half-life at 200 µM

Study these solved cases before continuing.
Cc1cc(OC(=O)c2ccc(OCC(CO[N+](=O)[O-])O[N+](=O)[O-])cc2)n(-c2ccccc2)n1 (stereo not given) : < 1 min
Cc1cc(OC(=O)C(C)(C)CO[N+](=O)[O-])n(-c2ccccc2)n1 : < 1 min
Cc1cc(OC(=O)OCCCCCCO[N+](=O)[O-])n(-c2ccccc2)n1 : < 1 min
Cc1cc(OC(=O)CCCCCO[N+](=O)[O-])n(-c2ccccc2)n1 : < 1 min

Moving on to the next compound.
Item under review: `Cc1cc(OC(=O)C(C)(C)CCCCO[N+](=O)[O-])n(-c2ccccc2)n1` . Reported half-life at 200 µM?
2 min

###

# assay_text: Half life in human serum at 250 uM by RP-HPLC analysis
# Assay type: ADME, cell-free
quantity: half-life at 250 µM (min)
One number for each entry, in min.

Use these answered entries as a reference point.
Cc1cc(OC(=O)C(C)(C)CCCCO[N+](=O)[O-])n(-c2ccccc2)n1 : 13.3
Cc1cc(OC(=O)c2ccc(CC(CO[N+](=O)[O-])O[N+](=O)[O-])cc2)n(-c2ccccc2)n1 (configuration not stated) : 7.1

Next molecule, please.
half-life at 250 µM lookup needed for `Cc1cc(OC(=O)c2ccc(CCCO[N+](=O)[O-])cc2)n(-c2ccccc2)n1` , thanks.
4

###

# assay_text: Half life in human serum at 250 uM by RP-HPLC analysis
# Type: ADME, cell-free
quantity: half-life at 250 µM (min)
Give bare numbers, in min.

Cc1cc(OC(=O)c2ccc(OCCCO[N+](=O)[O-])cc2)n(-c2ccccc2)n1 : 5
Cc1cc(OC(=O)C(C)(C)CO[N+](=O)[O-])n(-c2ccccc2)n1 : 1.9
Cc1cc(OC(=O)C(C)(C)CCC(CO[N+](=O)[O-])O[N+](=O)[O-])n(-c2ccccc2)n1 (stereo not given) : 16.2

Kindly review the next compound as well.
Endpoint output: half-life at 250 µM of Cc1cc(OC(=O)c2ccc(OCC(CO[N+](=O)[O-])O[N+](=O)[O-])cc2)n(-c2ccccc2)n1 (stereo not given) . Value?
7.8

###

# assay_text: Half life in 0.1 M HCl/MeOH 60/40 (v/v) mixture by RP-HPLC analysis
# Assay type: physicochemical
Please respond with reported half-life for every item in the list.

Hi, could you look up half-life for each item in my list?
1. Cc1cc(OC(=O)OCCCO[N+](=O)[O-])n(-c2ccccc2)n1
2. Cc1cc(OC(=O)c2ccc(OCCCO[N+](=O)[O-])cc2)n(-c2ccccc2)n1
3. Cc1cc(OC(=O)c2ccc(CCCO[N+](=O)[O-])cc2)n(-c2ccccc2)n1
4. Cc1cc(OC(=O)OCCCCCCO[N+](=O)[O-])n(-c2ccccc2)n1

1: 1.4 h; 2: 35 h; 3: 13 h; 4: 4 h

For each entry beneath this line, provide reported half-life.
1. Cc1cc(OC(=O)c2ccc(CC(CO[N+](=O)[O-])O[N+](=O)[O-])cc2)n(-c2ccccc2)n1 (configuration not stated)
2. Cc1cc(OC(=O)C(C)(C)CCCCO[N+](=O)[O-])n(-c2ccccc2)n1
3. Cc1cc(OC(=O)CCCC(CO[N+](=O)[O-])O[N+](=O)[O-])n(-c2ccccc2)n1 (configuration not stated)
4. Cc1cc(OC(=O)OCCCCC(CO[N+](=O)[O-])O[N+](=O)[O-])n(-c2ccccc2)n1 (configuration not stated)

1. 8 h
2. 24 h
3. 0.7 h
4. 3.1 h

Quick batch: half-life for everything below.
1. Cc1cc(OC(=O)C(C)(C)CCC(CO[N+](=O)[O-])O[N+](=O)[O-])n(-c2ccccc2)n1 (configuration not stated)
2. Cc1cc(OC(=O)c2ccc(OCC(CO[N+](=O)[O-])O[N+](=O)[O-])cc2)n(-c2ccccc2)n1 (configuration not stated)
3. Cc1cc(OC(=O)CCCCCO[N+](=O)[O-])n(-c2ccccc2)n1
4. Cc1cc(OC(=O)C(C)(C)CO[N+](=O)[O-])n(-c2ccccc2)n1

1. 10 h
2. 25 h
3. 1 h
4. 1.9 h

###

# assay_text: Half life in 5% DMSO/0.1 M KCl by RP-HPLC analysis
# Assay type: physicochemical
# condition_description: 5% DMSO/0.1 M KCl
quantity: half-life (h)
Give bare numbers, in h.

Examples from the recorded data:
Cc1cc(OC(=O)C(C)(C)CCC(CO[N+](=O)[O-])O[N+](=O)[O-])n(-c2ccccc2)n1 (stereo not drawn) : 16
Cc1cc(OC(=O)CCCC(CO[N+](=O)[O-])O[N+](=O)[O-])n(-c2ccccc2)n1 (stereo not drawn) : 10
Cc1cc(OC(=O)OCCCO[N+](=O)[O-])n(-c2ccccc2)n1 : 13
Cc1cc(OC(=O)C(C)(C)CCCCO[N+](=O)[O-])n(-c2ccccc2)n1 : 22
Cc1cc(OC(=O)OCCCCC(CO[N+](=O)[O-])O[N+](=O)[O-])n(-c2ccccc2)n1 (stereo not drawn) : 6

Working through the 3 compounds below one at a time, give half-life for each.
1. Cc1cc(OC(=O)CCCCCO[N+](=O)[O-])n(-c2ccccc2)n1
2. Cc1cc(OC(=O)OCCCCCCO[N+](=O)[O-])n(-c2ccccc2)n1
3. Cc1cc(OC(=O)C(C)(C)CO[N+](=O)[O-])n(-c2ccccc2)n1

31
25
36
